- tested on: T1, human CD3e (T-cell surface glycoprotein CD3 epsilon chain) (human, UniProt P07766 23-207)
- T1 construct: Target of the anti-hCD3e antibodies on human PBMC, Jurkat cells and cells expressing human CD3e; on T cells it is part of the CD3/TCR complex; also called hCD3e; CD3e on human PBMC
- experimental details: flow cytometry, human PBMC, antibody 10 µg/mL, anti-human IgG Fc-Alexa Fluor647 (1:500), anti-hTcRβ-PerCP (1:30)
metric: upper right quadrant, percent of cells AF647+ / hTcRβ-PerCP+ (%)

binder: 1B1-H4K1-IgG1-LALA (antibody, V domains shown, Humanized; human IgG1 with LALA mutations; also called H4K1 (humanized 1B1)) VH: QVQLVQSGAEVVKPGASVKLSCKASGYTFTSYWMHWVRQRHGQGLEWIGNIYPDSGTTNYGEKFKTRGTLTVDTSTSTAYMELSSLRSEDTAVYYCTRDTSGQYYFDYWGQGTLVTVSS VL: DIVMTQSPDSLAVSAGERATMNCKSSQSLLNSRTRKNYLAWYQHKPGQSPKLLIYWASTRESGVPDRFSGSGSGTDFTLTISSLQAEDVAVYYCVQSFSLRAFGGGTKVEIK
quantitative readout: 64.1

binder: 1B1-H3K3-IgG1-LALA (antibody, V domains shown, Humanized; human IgG1 with LALA mutations; also called H3K3 (humanized 1B1)) VH: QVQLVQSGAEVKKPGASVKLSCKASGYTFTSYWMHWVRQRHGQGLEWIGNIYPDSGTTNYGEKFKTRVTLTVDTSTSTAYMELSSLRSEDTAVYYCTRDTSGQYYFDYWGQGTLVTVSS VL: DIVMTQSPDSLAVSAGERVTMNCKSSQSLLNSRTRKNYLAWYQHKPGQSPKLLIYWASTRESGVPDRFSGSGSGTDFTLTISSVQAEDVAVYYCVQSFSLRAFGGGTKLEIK
quantitative readout: 63.7

binder: 1B1-H1K3-IgG1-LALA (antibody, V domains shown, Humanized; human IgG1 with LALA mutations; also called H1K3 (humanized 1B1)) VH: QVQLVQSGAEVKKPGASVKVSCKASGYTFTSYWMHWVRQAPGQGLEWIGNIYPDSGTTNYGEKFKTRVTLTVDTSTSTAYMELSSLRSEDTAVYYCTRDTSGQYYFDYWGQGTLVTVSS VL: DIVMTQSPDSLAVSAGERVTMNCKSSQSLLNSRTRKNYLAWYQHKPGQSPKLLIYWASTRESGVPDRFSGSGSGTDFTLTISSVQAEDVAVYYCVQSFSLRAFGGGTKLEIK
quantitative readout: 60
